- Tested on: Saccharomyces cerevisiae;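 further: PSI is a weighted mean of sequencing reads over stability bins, variants kept only with over 10 reads, mCherry proximal and sfGFP distal, peptide attached via GGGS linker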
- test description: protein stability index of tFT-peptide fusion (C-terminal peptide) (PSI (0-1 scale)); higher = more stable (slower turnover)
- assay setup: genetic background: wild type; temperature: 30 C
I'd be grateful if you could share measured protein stability index for these entries.
Answer with the value's number alone.

Qu. For the record DASVIPAKPRRS , what value of protein stability index is listed for Saccharomyces cerevisiae?
Ans. 0.69

Qu. How about FLAPPPDVGQLV ?
Ans. 0.692

Qu. Subsequent entry: LVRVFGQSPAPL
Ans. 0.696

Qu. Quick one: RYGARAGPPVNL
Ans. 0.68

Qu. Next entry: GVLGWTRFRSCS
Ans. 0.715

Qu. And then PFGSSPLCGSSF , what is it?
Ans. 0.683

Qu. Do the same for SGVGSRDGVRGA please
Ans. 0.684

Qu. # iterate: PTPLPPPPPRPD
Ans. 0.715

Qu. For RGVLRSETCRLS then?
Ans. 0.71

Qu. What do you get for IFPLPPSSRLTP ?
Ans. 0.693
